- Target Entity: recombinant firefly luciferase (Photinus pyralis)
- Sequence (P08659 whole entry): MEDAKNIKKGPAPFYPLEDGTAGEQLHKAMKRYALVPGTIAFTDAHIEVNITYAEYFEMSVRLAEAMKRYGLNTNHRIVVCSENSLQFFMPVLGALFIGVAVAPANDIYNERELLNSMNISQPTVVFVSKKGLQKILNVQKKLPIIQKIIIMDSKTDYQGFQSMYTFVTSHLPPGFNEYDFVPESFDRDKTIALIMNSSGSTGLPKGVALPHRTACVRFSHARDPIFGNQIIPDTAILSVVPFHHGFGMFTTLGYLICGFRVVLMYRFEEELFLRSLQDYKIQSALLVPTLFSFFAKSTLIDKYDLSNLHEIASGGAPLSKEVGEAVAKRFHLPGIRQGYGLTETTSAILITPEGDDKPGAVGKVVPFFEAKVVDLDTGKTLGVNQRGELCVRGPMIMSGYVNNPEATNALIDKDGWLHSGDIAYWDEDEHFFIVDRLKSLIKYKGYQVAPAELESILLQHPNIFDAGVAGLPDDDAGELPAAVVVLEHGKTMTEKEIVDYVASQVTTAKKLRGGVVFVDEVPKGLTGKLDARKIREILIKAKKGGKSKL
- Measurement Description: biochemical
- Test Settings: dose response, maximum inhibition; read-out: rLuc inhibition dose response: Maximum inhibition (%)
Readout Kind: Emax

{"columns": ["Compound", "Target Entity", "Emax"],
 "data": [
  ["Cc1nc(NC(=O)c2c(-n3cnnn3)sc(C)c2C)sc1C", "recombinant firefly luciferase (Photinus pyralis)", "1.63%"]
]}

Query string: Return the recorded Emax value; entry: Cc1ccc(Nc2nccc(C3CCN(CC(N)=O)C3)n2)nc1 (centres unmarked)
Result string: 81.5%

Query string: Kindly indicate its recorded Emax. Item: O=C(NC1CCCC1)O[C@H]1COCCN(c2nc3ccccc3s2)C1
Result string: 16.5%

Query string: Please supply the value of reported Emax for the item COc1ccc2cc(C3CN(C(=O)N(C)C)CCO3)ccc2c1 (centres unmarked)
Result string: 91.8%

Query string: Give recorded Emax. Cc1nc(C(=O)NC2CCN(CCOc3ccc(Br)cc3)CC2)cs1
Result string: 32.1%

* * *

- Measurement Description: HepG2 cytotoxicity screening (CellTiter-Glo)
- Test Settings: human, uninfected HepG2-A16-CD81 (EGFP) hepatocytes
pIC50: −log10 of the molar value.
The compounds listed here are annotated with their pIC50.

Query string: Consider the compound Cc1ccoc1C(=O)NC1CCN(Cc2csc3c(F)cccc23)CC1 and give its recorded pIC50.
Result string: < 4.60

* * *

- Tested on: P. berghei liver stage (PbLuc)
- Measurement Description: P. berghei luciferase liver stage (PbLuc) assay in HepG2-A16-CD81 hepatocytes
- Assay type: cell-based, Plasmodium berghei
- Test Settings: Plasmodium berghei, HepG2-A16-CD81, 48 h, 48 h liver stage, HepG2-A16-CD81; read-out: Pbluc (EEF) IC50
pIC50: −log10 of the molar value.
Readout Kind: pIC50

Known results for molecules:
{"columns": ["Molecule", "Target Entity", "pIC50"],
 "data": [
  ["Cc1ccc(-c2ccc(C3CNCCO3)nc2)cc1 (stereo not drawn)", "P. berghei liver stage (PbLuc)", "> 9.85"],
  ["Clc1ccc(-c2ccc(C3CNCCO3)nc2)cc1 (stereo not drawn)", "P. berghei liver stage (PbLuc)", "> 9.85"]
]}

Then there is this molecule:
Query string: Return value of pIC50 for input COc1ccc2cc(C3CN(C(=O)N(C)C)CCO3)ccc2c1 (stereo not drawn) , no commentary.
Result string: > 9.85

* * *

IC50 by entry:
- Test system: P. falciparum Dd2 (PfLuc) line expressing firefly luciferase, asexual blood stage
- Measurement Description: microbe, parasite or virus in culture
- Assay type: cell-based, Plasmodium falciparum
- Test Settings: Plasmodium falciparum, DD2, read-out: CDD P. falciparum Luciferase ABS 11-pt Reconfirmation Dose Response (48hr): IC50 (μM); 11-pt dose response, 48hr
State the answer as a number, implicitly in µM.

{"columns": ["Compound", "Readout Kind", "Observed Measurement"],
 "data": [
  ["Cc1cc(CN2CCC(CNS(=O)(=O)c3ccc(Br)s3)CC2)c(C)o1", "IC50", 3.89],
  ["Cc1cccc(C)c1Nc1noc2c1CN(C(=O)c1c[nH]nc1C)CC2", "IC50", 1.9],
  ["Fc1ccc(CN2CCC3(CC2)CCN(Cc2nccs2)CC3)cc1", "IC50", 8.85],
  ["CC(C)c1nccc(C2(c3ccccc3Cl)CCNCC2)n1", "IC50", 3.82],
  ["CCN1CCCN(S(=O)(=O)c2cc3ccccc3o2)CC1", "IC50", 8.55]
]}

Query string: Using the record for Cc1nc(C2CCNCC2)cc(N(C)Cc2cc3cc(F)ccc3[nH]2)n1 , state its measured IC50.
Result string: 2.3

Query string: Kindly indicate its recorded IC50. Item: Cc1ncc(CN(C)C2CCCN(CCc3ccccc3)C2)n1C (centres unmarked)
Result string: 6.24

Query string: Determine its reported IC50: CC(NCC1CCN(CCO)CC1)c1cccc(Cl)c1 (centres unmarked)
Result string: 3.01

Query string: Hello, please tell me recorded IC50 for this one: CCCNc1cc(-c2c[nH]nc2C2CCN(C(=O)C3CCC3)C2)ccn1 (centres unmarked)
Result string: 4.01

Query string: Please give the documented IC50 of COc1ccc(CCC(=O)NCCN2CCC(c3cccs3)CC2)cc1
Result string: 11.4

Query string: Please give the documented IC50 of Cc1cnn(CCNCc2nccn2Cc2ccccc2)c1
Result string: 10.4
